Ref: ChEMBL document CHEMBL1155058

Procedure summary: Inhibition of Trypanosoma vivax IAG-NH expressed in Escherichia coli WK6 cells
Readout: pKi
Quick note: pKi means taking -log10 of the concentration in moles per liter.

Reference set (5 entries):
OC[C@@H]1[C@@H](O)[C@@H](O)CN1Cc1ccc(-n2cccn2)cc1 5.92
OC[C@@H]1[C@@H](O)[C@@H](O)CN1Cc1nccc2ccccc12 6.12
OC[C@@H]1[C@@H](O)[C@@H](O)CN1Cc1ccc2cccnc2c1 6.14
OC[C@@H]1[C@@H](O)[C@@H](O)CN1Cc1ccncc1 4.70
Cn1nnc2cc(CN3C[C@H](O)[C@H](O)[C@H]3CO)ccc21 6.14

Here is another compound to look at.
Which pKi value belongs to COc1ccc(CN2C[C@H](O)[C@H](O)[C@H]2CO)cn1 ?
4.49

----------
Procedure summary: Inhibition of Trypanosoma vivax IAG-NH expressed in Escherichia coli WK6 cells
Examples of compounds with documented pKi follow.
Quick note: pKi means taking -log10 of the concentration in moles per liter.

Reference set (4 entries):
OC[C@@H]1[C@@H](O)[C@@H](O)CN1Cc1ccc2cccc(O)c2n1 6.00
OC[C@@H]1[C@@H](O)[C@@H](O)CN1Cc1cnc2ccccc2c1 4.70
COc1cccc2c(CN3C[C@H](O)[C@H](O)[C@H]3CO)c[nH]c12 5.64
Cc1nc(-c2ccccc2)ncc1CN1C[C@H](O)[C@H](O)[C@H]1CO 4.37

Which pKi value belongs to O=[N+]([O-])c1cccc(CN2C[C@H](O)[C@H](O)[C@H]2CO)c1 ?
4.64

----------
Procedure summary: Inhibition of Trypanosoma vivax IAG-NH expressed in Escherichia coli WK6 cells
Readout: pKi
Quick note: pKi means taking -log10 of the concentration in moles per liter.

Which pKi value belongs to OC[C@@H]1[C@@H](O)[C@@H](O)CN1Cc1ccc(-n2cccc2)cc1 ?
6.00

Please answer likewise for OC[C@@H]1[C@@H](O)[C@@H](O)CN1Cc1ccnc2ccccc12
4.54

Please answer likewise for Cn1c(CN2C[C@H](O)[C@H](O)[C@H]2CO)nc2ccccc21
5.68

Please answer likewise for OC[C@@H]1[C@@H](O)[C@@H](O)CN1Cc1ccccc1
4.23

Please answer likewise for OC[C@@H]1[C@@H](O)[C@@H](O)CN1Cc1ccc(-n2cncn2)cc1
5.92

Please answer likewise for Cc1nn(-c2ccccc2)nc1CN1C[C@H](O)[C@H](O)[C@H]1CO
7.20

----------
Procedure summary: Inhibition of Trypanosoma vivax IAG-NH expressed in Escherichia coli WK6 cells
pKi: −log10 of the molar value.
Use 5 as the dividing line for pKi, with the line itself on the 1 side and lower values as -1.

Example cases with answers are listed next.
OC[C@@H]1[C@@H](O)[C@@H](O)CN1Cc1c[nH]c2c(O)ncnc12 1
N#Cc1cccc(CN2C[C@H](O)[C@H](O)[C@H]2CO)c1 1
N#Cc1ccc(CN2C[C@H](O)[C@H](O)[C@H]2CO)cc1 -1
Nc1ncccc1CN1C[C@H](O)[C@H](O)[C@H]1CO -1
Nc1ncnc2c(CN3C[C@H](O)[C@H](O)[C@H]3CO)c[nH]c12 1

Tell me whether pKi is at least 5 here: OC[C@@H]1[C@@H](O)[C@@H](O)CN1Cc1cccc2cccnc12
1

Please answer likewise for OC[C@@H]1[C@@H](O)[C@@H](O)CN1Cc1ccc2ccccc2n1
1

Please answer likewise for OC[C@@H]1[C@@H](O)[C@@H](O)CN1Cc1ccc2ccccc2c1
1

Please answer likewise for OC[C@@H]1[C@@H](O)[C@@H](O)CN1Cc1cccc(-n2cccc2)c1
1

Please answer likewise for OC[C@@H]1[C@@H](O)[C@@H](O)CN1Cc1ccc(I)cc1
1
